Ref: paper PMC8640094

# Tested on: SF-268 (CNS cancer)
# experiment.notes: MTT cytotoxicity assay, SF-268 cells
# Format: cell-based, human
# condition.context: Homo sapiens, SF-268, 72 h, SF268 cells, c 64.00 μM, triplicate values; read-out: cell inhibition
Label rule, in plain words: inhibition at 64 µM of 90% and up is fulfilled, under 90% is not fulfilled.

{"compound": "C/C(=C\\C=C\\[C@]1(C)OC(=O)[C@@H](C)[C@@H]1O)[C@H](C)O [compound 2, colletolides A]", "assigned.class": "not fulfilled"}
{"compound": "CCCC(O)C1=C(C)C(=O)C(C)C1 (stereo not drawn) [compound 3, diaportone B]", "assigned.class": "not fulfilled"}
{"compound": "CC(C)[C@@H](C)/C=C/[C@@H](C)C1CCC2C3=CC(=O)OC4=CC(=O)CC[C@]4(C)C3CC[C@@]21C (stereo partly drawn) [compound 9, fortisterol]", "assigned.class": "not fulfilled"}
{"compound": "CC(=O)OC(C)C(C)=CC=CC1(C)OC(=O)C(C)C1O (stereo not drawn) [compound 1, diaportone A]", "assigned.class": "not fulfilled"}
{"compound": "CC1(O)CC2OC23C(C)(C)C(Cl)CCC3(C)C1C(=O)O (stereo not drawn) [compound 6, altiloxin B]", "assigned.class": "not fulfilled"}
{"compound": "CC(C)[C@@H](C)/C=C/[C@@H](C)[C@H]1CCC(=O)[C@]23CC(=O)C4=CC(=O)CC[C@]4(C)[C@H]2CC[C@]13C [compound 7, dankasterone A]", "assigned.class": "fulfilled"}
{"compound": "CCCC(O)C1=C(C)C(=O)CC1C (stereo not drawn) [compound 4, phomotenone]", "assigned.class": "not fulfilled"}
{"compound": "COc1cccc2c1C(=O)c1c(O)c3c(c(O)c1C2=O)C[C@@](O)(C(=O)CO)C[C@@H]3O[C@H]1C[C@H](N)[C@H](O)[C@H](C)O1 [Adriamycin, reference compound]", "assigned.class": "fulfilled"}

----------
# Test system: HepG2 (hepatoma cancer)
# experiment.notes: MTT cytotoxicity assay, HepG2 cells
# Type: cell-based, human
# condition.context: Homo sapiens, HepG2, 72 h, HepG2, c 16.00 μM, three replicates; read-out: cell inhibition
Answer Not satisfied if inhibition at 16 µM is under 60%, and Satisfied if it is 60% or more.

{"compound": "CC(C)[C@@H](C)/C=C/[C@@H](C)[C@H]1CCC(=O)[C@]23CC(=O)C4=CC(=O)CC[C@]4(C)[C@H]2CC[C@]13C", "assigned.class": "Satisfied"}
{"compound": "C/C(=C\\C=C\\[C@]1(C)OC(=O)[C@@H](C)[C@@H]1O)[C@H](C)O", "assigned.class": "Not satisfied"}
{"compound": "CC1(O)CC2OC23C(C)(C)C(Cl)CCC3(C)C1C(=O)O (centres unmarked)", "assigned.class": "Not satisfied"}
{"compound": "COc1cccc2c1C(=O)c1c(O)c3c(c(O)c1C2=O)C[C@@](O)(C(=O)CO)C[C@@H]3O[C@H]1C[C@H](N)[C@H](O)[C@H](C)O1 [Adriamycin, reference compound]", "assigned.class": "Satisfied"}

----------
# Test system: SF-268 (CNS cancer)
# experiment.notes: MTT cytotoxicity assay, SF-268 cells
# Format: cell-based, human
# condition.context: Homo sapiens, SF-268, 72 h, SF268 cells, c 32.00 μM, triplicate values; read-out: cell inhibition
# label = condition met if inhibition at 32 µM >= 30% else condition not met

{"molecule": "CC1(O)CC2OC23C(C)(C)C(Cl)CCC3(C)C1C(=O)O (stereo not drawn) [compound 6, altiloxin B]", "assay.target": "SF-268 (CNS cancer)", "assigned.class": "condition not met"}
{"molecule": "CCCC(O)C1=C(C)C(=O)C(C)C1 (stereo not drawn) [compound 3, diaportone B]", "assay.target": "SF-268 (CNS cancer)", "assigned.class": "condition not met"}
{"molecule": "CC(C)[C@@H](C)/C=C/[C@@H](C)C1CCC2C3=CC(=O)OC4=CC(=O)CC[C@]4(C)C3CC[C@@]21C (stereo partly drawn) [compound 9, fortisterol]", "assay.target": "SF-268 (CNS cancer)", "assigned.class": "condition met"}
{"molecule": "CCCC(O)C1=C(C)C(=O)CC1C (stereo not drawn) [compound 4, phomotenone]", "assay.target": "SF-268 (CNS cancer)", "assigned.class": "condition met"}
{"molecule": "C/C(=C\\C=C\\[C@]1(C)OC(=O)[C@@H](C)[C@@H]1O)[C@H](C)O [compound 2, colletolides A]", "assay.target": "SF-268 (CNS cancer)", "assigned.class": "condition not met"}
{"molecule": "COc1cccc2c1C(=O)c1c(O)c3c(c(O)c1C2=O)C[C@@](O)(C(=O)CO)C[C@@H]3O[C@H]1C[C@H](N)[C@H](O)[C@H](C)O1 [Adriamycin, reference compound]", "assay.target": "SF-268 (CNS cancer)", "assigned.class": "condition met"}
{"molecule": "CC(C)[C@@H](C)C=C[C@@H](C)[C@H]1CC[C@@]2(O)C3=CC(=O)C4=CC(=O)CC[C@]4(C)[C@H]3CC[C@]12C [compound 8]", "assay.target": "SF-268 (CNS cancer)", "assigned.class": "condition met"}
{"molecule": "CC(=O)OC(C)C(C)=CC=CC1(C)OC(=O)C(C)C1O (stereo not drawn) [compound 1, diaportone A]", "assay.target": "SF-268 (CNS cancer)", "assigned.class": "condition not met"}
{"molecule": "CC(C)[C@@H](C)/C=C/[C@@H](C)[C@H]1CCC(=O)[C@]23CC(=O)C4=CC(=O)CC[C@]4(C)[C@H]2CC[C@]13C [compound 7, dankasterone A]", "assay.target": "SF-268 (CNS cancer)", "assigned.class": "condition met"}

----------
Entries annotated with measured inhibition at 2 µM
# System: normal cell line LX-2
# experiment.notes: MTT cytotoxicity assay, normal cell line LX-2
# Assay type: cell-based
# condition.context: 72 h, LX-2, c 2.00 μM, three replicates

{"compound": "CC(C)[C@@H](C)/C=C/[C@@H](C)C1CCC2C3=CC(=O)OC4=CC(=O)CC[C@]4(C)C3CC[C@@]21C (stereo partly drawn) [compound 9, fortisterol]", "assay.target": "normal cell line LX-2", "output.unit": "%", "inhibition at 2 µM": 13.6}
{"compound": "CC(=O)OC(C)C(C)=CC=CC1(C)OC(=O)C(C)C1O (stereo not drawn) [compound 1, diaportone A]", "assay.target": "normal cell line LX-2", "output.unit": "%", "inhibition at 2 µM": 5.08}
{"compound": "CC(C)[C@@H](C)/C=C/[C@@H](C)[C@H]1CCC(=O)[C@]23CC(=O)C4=CC(=O)CC[C@]4(C)[C@H]2CC[C@]13C [compound 7, dankasterone A]", "assay.target": "normal cell line LX-2", "output.unit": "%", "inhibition at 2 µM": 18.4}

----------
# System: HepG2 (hepatoma cancer)
# experiment.notes: MTT cytotoxicity assay, HepG2 cells
# Type: cell-based, human
# condition.context: Homo sapiens, HepG2, 72 h, HepG2, c 16.00 μM, three replicates; read-out: cell inhibition
# Description: The cytotoxicity of all compounds against three human tumor cell lines, SF-268 (CNS cancer), MCF-7 (breast cancer), and HepG2 (hepatoma cancer), and normal cell line LX-2 was tested using the MTT assay. Adriamycin was used as a positive control. All cells were seeded into 96-well plates at 5 × 10^4 cells/ml and incubated at 37°C under a 5% CO2 atmosphere for 24 h. Then, the tested compounds were added. […] Optical density (OD) was recorded at 490 nm on a microplate reader to calculate the IC50 values.
Collected inhibition at 16 µM values appear next to each entry.

{"compound": "CC(=O)OC(C)C(C)=CC=CC1(C)OC(=O)C(C)C1O (stereo not shown)", "inhibition at 16 µM": "30.1%"}
{"compound": "CCCC(O)C1=C(C)C(=O)CC1C (stereo not shown)", "inhibition at 16 µM": "31.4%"}
{"compound": "CC(C)[C@@H](C)/C=C/[C@@H](C)C1CCC2C3=CC(=O)OC4=CC(=O)CC[C@]4(C)C3CC[C@@]21C (stereo partly shown)", "inhibition at 16 µM": "31.6%"}
{"compound": "CCCC(O)C1=C(C)C(=O)C(C)C1 (stereo not shown)", "inhibition at 16 µM": "30.6%"}

----------
# System: MCF-7 (breast cancer)
# experiment.notes: MTT cytotoxicity assay, MCF-7 cells
# Assay type: cell-based, human
# condition.context: Homo sapiens, MCF7, 72 h, MCF-7, c 128.00 μM, three replicates; read-out: cell inhibition
measurement.label: inhibition at 128 µM (%)

{"molecule": "C/C(=C\\C=C\\[C@]1(C)OC(=O)[C@@H](C)[C@@H]1O)[C@H](C)O", "measured.value": 70.1}
{"molecule": "CC(=O)OC(C)C(C)=CC=CC1(C)OC(=O)C(C)C1O (stereo not drawn)", "measured.value": 83.4}
{"molecule": "CC(C)[C@@H](C)C=C[C@@H](C)[C@H]1CC[C@@]2(O)C3=CC(=O)C4=CC(=O)CC[C@]4(C)[C@H]3CC[C@]12C", "measured.value": 96.2}
{"molecule": "CC(C)[C@@H](C)/C=C/[C@@H](C)[C@H]1CCC(=O)[C@]23CC(=O)C4=CC(=O)CC[C@]4(C)[C@H]2CC[C@]13C", "measured.value": 98.3}
{"molecule": "CC(C)[C@@H](C)/C=C/[C@@H](C)C1CCC2C3=CC(=O)OC4=CC(=O)CC[C@]4(C)C3CC[C@@]21C (stereo partly drawn)", "measured.value": 86.4}
{"molecule": "CC1(O)CC2OC23C(C)(C)C(Cl)CCC3(C)C1C(=O)O (stereo not drawn)", "measured.value": 66.4}
{"molecule": "COc1cccc2c1C(=O)c1c(O)c3c(c(O)c1C2=O)C[C@@](O)(C(=O)CO)C[C@@H]3O[C@H]1C[C@H](N)[C@H](O)[C@H](C)O1 [Adriamycin, reference compound]", "measured.value": 97.4}
{"molecule": "CCCC(O)C1=C(C)C(=O)C(C)C1 (stereo not drawn)", "measured.value": 76.1}
{"molecule": "CCCC(O)C1=C(C)C(=O)CC1C (stereo not drawn)", "measured.value": 72.2}
